test: physchem
Type: physicochemical
measurement conditions: water
property measured: solubility

compound: COc1ccc(C[C@@H](C)[C@@H](C)Cc2ccc(OC)c(OC)c2)cc1OC [terameprocol, tetra-o-methyl nordihydroguaiaretic acid]
result: < 10 µg/mL
